# system-under-test: androgen receptor (Homo sapiens)
# Sequence (P10275 1-920): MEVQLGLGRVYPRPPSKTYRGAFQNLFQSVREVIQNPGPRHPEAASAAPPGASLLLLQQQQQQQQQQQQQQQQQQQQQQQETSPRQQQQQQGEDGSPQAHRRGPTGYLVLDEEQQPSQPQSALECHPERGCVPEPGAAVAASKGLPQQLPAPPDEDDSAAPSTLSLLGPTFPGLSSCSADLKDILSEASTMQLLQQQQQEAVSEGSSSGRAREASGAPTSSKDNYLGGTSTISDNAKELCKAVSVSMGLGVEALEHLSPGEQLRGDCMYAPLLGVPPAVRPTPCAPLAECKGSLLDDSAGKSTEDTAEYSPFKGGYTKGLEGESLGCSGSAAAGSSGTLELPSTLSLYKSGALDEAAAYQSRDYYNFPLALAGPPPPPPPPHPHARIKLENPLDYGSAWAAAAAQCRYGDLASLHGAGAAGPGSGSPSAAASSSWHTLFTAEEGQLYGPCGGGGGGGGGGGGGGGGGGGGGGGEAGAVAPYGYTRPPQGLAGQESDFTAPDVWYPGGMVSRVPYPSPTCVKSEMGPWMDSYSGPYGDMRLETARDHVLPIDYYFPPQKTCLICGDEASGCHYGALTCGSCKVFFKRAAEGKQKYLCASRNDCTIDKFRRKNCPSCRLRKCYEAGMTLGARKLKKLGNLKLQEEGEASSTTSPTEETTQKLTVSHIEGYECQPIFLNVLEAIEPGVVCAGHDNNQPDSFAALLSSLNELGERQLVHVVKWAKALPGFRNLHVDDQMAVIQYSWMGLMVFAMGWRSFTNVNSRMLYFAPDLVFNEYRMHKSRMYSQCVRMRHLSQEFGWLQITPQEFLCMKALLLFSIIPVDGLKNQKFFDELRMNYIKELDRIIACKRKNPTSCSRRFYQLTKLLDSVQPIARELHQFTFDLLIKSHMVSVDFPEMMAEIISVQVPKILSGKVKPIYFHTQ
# protocol-description: Yeast two-hybrid screening of unbiased X15 peptide library, ligand-induced β-galactosidase activity (FIG. 3, Table 503)
# Type: cell-based
# Parameters: expressed in transfected cells; host or cells: Saccharomyces cerevisiae PJ69-4α
# condition-info: ligand RU
// boundary case: Yeast Specificity Graph (FIG. 3): RU equal to 0.4 maps to NOT MET; strictly smaller maps to MET

Consider the worked cases shown below.
Request: Answer whether the substance EFQQCMCAEVKSWLGGSLDLOPS* [B8E9] has Yeast Specificity Graph (FIG. 3): RU strictly less than 0.4
Response: NOT MET

Request: Another: EFRSSVFEQMYLCTGGSLDLOPS* [B5G11]
Response: NOT MET

Request: Another: EFRFPFHEMVREWESMGLERVRYAEP [M4D1]
Response: MET

Request: Another: EFHSRLRVEVVSWGIGSTCSQANSGRISYDL* [B8H3]
Response: MET

Request: Another: EFPELLAMTRWGRHAALLEPQRLPPPRTTTQPQTEFERMFFFTRPMRTTGLLDLOPS* [B2A7]
Response: NOT MET

Please look at the following substance next.
Request: Answer whether the substance EFRQSFVSEILGGGWLPLDLOPS [M2H3] has Yeast Specificity Graph (FIG. 3): RU strictly less than 0.4
Response: NOT MET

---

# system-under-test: androgen receptor (Homo sapiens, UniProt P10275)
# protocol-description: Yeast two-hybrid screening of unbiased X15 peptide library, ligand-induced β-galactosidase activity (FIG. 3, Table 503)
# Assay type: cell-based
# Set-up: expressed in transfected cells; host or cells: Saccharomyces cerevisiae PJ69-4α
# condition-info: ligand DHT
Decision: Yeast Specificity Graph (FIG. 3): DHT >= 2 yields yes (1), all other cases yield no (0).

Request: Identify whether the reported Yeast Specificity Graph (FIG. 3): DHT of the following substance is 2 or greater: EFVNWDAVVPWSELVALLDLOPS [B8A10]
Response: no (0)

Request: Another: EFRFPFHEMVREWESMGLERVRYAEP [M4D1]
Response: no (0)

Request: Another: EFRQSFVSEILGGGWLPLDLOPS [M2H3]
Response: yes (1)

Request: Another: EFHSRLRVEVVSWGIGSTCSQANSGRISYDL* [B8H3]
Response: yes (1)

Request: Another: EFRSSVFEQMYLCTGGSLDLOPS* [B5G11]
Response: yes (1)

Next:
Request: Identify whether the reported Yeast Specificity Graph (FIG. 3): DHT of the following substance is 2 or greater: EFPELLAMTRWGRHAALLEPQRLPPPRTTTQPQTEFERMFFFTRPMRTTGLLDLOPS* [B2A7]
Response: no (0)

Request: Another: EFQQCMCAEVKSWLGGSLDLOPS* [B8E9]
Response: no (0)
